# Tested on: MvaT
# Method summary: PBM 8-mer E-score (mean of HK and ME arrays) (E-score (dimensionless, -0.5 to 0.5)); higher = stronger relative binding preference
Over roughly 33,000 sequences, “E-score (dimensionless, -0.5 to 0.5)” has its median near -0.058; the highest 2% begin near 0.35. Shown is part of a subset that was picked to be rich in the highest values.
Use 0.2 as the dividing line for PBM 8-mer E-score, with the line itself on the class 1 side and lower values as class 0.

AAATTTTA
class 1

# input for lookup
### Prompt Does the reported PBM 8-mer E-score for ATCTGCAT fall at or above the 0.2 mark?
### Response class 0

---

# Tested on: MvaT
# Method summary: PBM 8-mer E-score (mean of HK and ME arrays) (E-score (dimensionless, -0.5 to 0.5)); higher = stronger relative binding preference
Over roughly 33,000 sequences, “E-score (dimensionless, -0.5 to 0.5)” has its median near -0.058; the highest 2% begin near 0.35. This is one part of a sample in which the highest values are shown more often than they occur.
Property: PBM 8-mer E-score
Keep it simple and answer with nothing but the number.

Please review the following examples before continuing.
CAATTAAG
0.24
ACTATTAG
0.26
GAATTAAA
0.385
TGATTAAA
0.27
ATTATTAC
0.439

Summary for this sequence, CTTATTCC : PBM 8-mer E-score is 0.221

Summary for this sequence, AAATTAAT : PBM 8-mer E-score is 0.426
